meta.source: ChEMBL document CHEMBL4303122

- Tested on: SARS-CoV-2
- runDescription: Antiviral activity against SARS-CoV-2 (USA-WA1/2020 strain) measured by imaging in HRCE cells at MOI 0.4 after 96 hrs (reported as hit score from 0-1 for on-disease vs off-disease activity: scores >0.6 considered hits)
- Type: functional, Homo sapiens
Whole data set: some 1,600 compounds, median “Hit score” near 0.13, cut for the highest 2% near 0.46. Shown is part of a subset that was picked to be rich in the highest values.
endpointName: Hit score
Numbers only.

Illustrative cases are given below, each with its answer.
compound=O=C(O)c1ccc2c(c1)nc(Nc1cccc(Cl)c1)c1ccncc12 endpointname="Hit score" value=0.7608
compound=Cc1ccc(C(=O)Nc2ccc(CN3CCN(C)CC3)c(C(F)(F)F)c2)cc1C#Cc1cnc2cccnn12 endpointname="Hit score" value=0.5086
compound=CO/N=C(\C(=O)N[C@@H]1C(=O)N2C(C(=O)[O-])=C(C[n+]3cccc4c3CCC4)CS[C@H]12)c1csc(N)n1 endpointname="Hit score" value=0.1204
compound=Cc1ccc2c(Cl)cc(Cl)c(O)c2n1 endpointname="Hit score" value=0.2863
compound=Oc1c(Cl)cc(Cl)c(Cl)c1Cc1c(O)c(Cl)cc(Cl)c1Cl endpointname="Hit score" value=0.5286

Each of the following entries comes with a recorded value; kindly state Hit score for each.
1. O=C(Nc1cc(Cl)cc(Cl)c1O)c1c(O)c(Cl)cc(Cl)c1Cl [OXYCLOZANIDE]
2. CCOc1nc2cccc(C(=O)O)c2n1Cc1ccc(-c2ccccc2-c2noc(=O)[nH]2)cc1
3. CCc1cc2c(cc1CC)CC(NC[C@H](O)c1ccc(O)c3[nH]c(=O)ccc13)C2

Result:
1: 0.1882; 2: 0.1513; 3: -0.2891

====

- Tested on: SARS-CoV-2
- runDescription: Antiviral activity against SARS-CoV-2 (USA-WA1/2020 strain) measured by imaging in HRCE cells at MOI 0.4 after 96 hrs (reported as hit score from 0-1 for on-disease vs off-disease activity: scores >0.6 considered hits)
- Type: functional, Homo sapiens
In all, about 1,600 compounds were measured (“Hit score”: median about 0.13, highest 2% from about 0.46 on). The sample as a whole holds a higher share of the highest values than the screen did.
Please respond with reported Hit score for every item in the list.
Answers are plain numbers.

compound=CC(C)(C)NC[C@H](O)COc1ccccc1C1CCCC1 endpointname="Hit score" value=0.4905
compound=COc1ccc2c(O[C@@H]3C[C@H]4C(=O)N[C@]5(C(=O)NS(=O)(=O)C6CC6)C[C@H]5/C=C\CCCCN(C)C(=O)[C@@H]4C3)cc(-c3nc(C(C)C)cs3)nc2c1C endpointname="Hit score" value=0.1824

Please give Hit score, item by item, for the list that follows.
1. C=C1CC[C@H](O)C/C1=C/C=C1\CCC[C@]2(C)[C@@H]([C@H](C)CC[C@@H](O)C(C)(C)O)CC[C@@H]12
2. COc1cc([C@@H]2c3cc4c(cc3[C@@H](O[C@@H]3O[C@@H]5CO[C@@H](C)O[C@H]5[C@H](O)[C@H]3O)[C@H]3COC(=O)[C@H]23)OCO4)cc(OC)c1OP(=O)(O)O [ETOPOSIDE PHOSPHATE]
3. C=CC[C@@H]1/C=C(\C)C[C@H](C)C[C@H](OC)[C@H]2O[C@@](O)(C(=O)C(=O)N3CCCC[C@H]3C(=O)O[C@H](/C(C)=C/[C@@H]3CC[C@@H](O)[C@H](OC)C3)[C@H](C)[C@@H](O)CC1=O)[C@H](C)C[C@@H]2OC [TACROLIMUS ANHYDROUS]

Result:
0.3632
0.05858
0.3285
